System: femoral artery
assay_summary: Vasodilator activity, femoral artery (technique of perfused paw)
Type: in vivo
Parameters: key: O: no action; +: slight activity; ++: effect equal to half the effect of papaverine; +++: effect equal to that of papaverine; ++++: effect higher than that of papaverine
test_conditions: intra-arterial, 30 mg/kg, anaesthetized dog, vs papaverine at same dose
measure_name: VASODILATOR ACTIVITY

- CC(NCCCSc1ccccc1)C(O)c1ccc2c(c1)CCCCS2 (centres unmarked): +++
- CC(NC1CCCCCCC1)C(O)c1ccc2c(c1)CCS2 (centres unmarked): +
- Cc1ccc(CCCCNC(C)C(O)c2ccc3c(c2)CCCCS3)cc1 (centres unmarked): +++
- COc1ccc(OCCNC(C)C(O)c2ccc3c(c2)CC(C)S3)cc1 (centres unmarked): ++

From here, focus on the item given below.
Challenge: For CC(C(O)c1ccc2c(c1)CCCS2)N1CCOC(c2ccccc2)C1C (centres unmarked) , what is its reported VASODILATOR ACTIVITY?
Response given: 0

====

assay_summary: Acute toxicity, oral, LD50 (Litchfield and Wilcoxon)
test_conditions: mouse, in vivo, fasted male mice, confidence limits p=95% in brackets
Simple rule here: LD50 less than 4000 mg/kg is satisfied, otherwise not satisfied.

Some solved entries appear below for comparison.
- CC1CCc2cc(C(O)C(C)NCCCCc3ccccc3)ccc2S1 (stereo not shown) [No 5]: satisfied
- CCCCCCCCNC(C)C(O)c1ccc2c(c1)CCS2 (stereo not shown) [No 3]: not satisfied
- CC1Cc2cc(C(O)C(C)NCCCN3CCCC3)ccc2O1 (stereo not shown) [No 62]: satisfied
- CC(NCCOc1ccc2ccccc2c1)C(O)c1ccc2c(c1)CCCS2 (stereo not shown) [No 88]: not satisfied
- CCCCCCCCNC(C)C(O)c1ccc2c(c1)CCCCS2 (stereo not shown) [No 11]: satisfied

Challenge: Determine whether this molecule shows LD50 lower than 4000 mg/kg (ties excluded): CCCCCCCCNC(C)C(O)c1ccc2c(c1)CCCS2 (stereo not shown) [No 1]
Response given: not satisfied

Challenge: Determine whether this molecule shows LD50 lower than 4000 mg/kg (ties excluded): CC(NCCOc1ccc(C(C)(C)C)cc1)C(O)c1ccc2c(c1)CCC2 (stereo not shown) [No 176]
Response given: not satisfied

Challenge: Determine whether this molecule shows LD50 lower than 4000 mg/kg (ties excluded): Cc1ccc(OCCNC(C)C(O)c2ccc3c(c2)CCCS3)cc1 (stereo not shown) [No 54]
Response given: not satisfied

====

System: femoral artery
assay_summary: Vasodilator activity, femoral artery (technique of perfused paw)
Format: in vivo
Parameters: key: O: no action; +: slight activity; ++: effect equal to half the effect of papaverine; +++: effect equal to that of papaverine; ++++: effect higher than that of papaverine
test_conditions: intra-arterial, 30 mg/kg, anaesthetized dog, vs papaverine at same dose
Description: (3) The vasodilator activity was measured at the level of femoral artery on anaesthetized dog (technique of perfused paw). The tested substances were given intra-arterially at the rate of 30 mg/kg. Results are expressed with respect to papaverine tested at the same dose. ++: effect equal to half the effect of papaverine. +++: effect equal to that of papaverine. ++++: effect higher than that of papaverine.
measure_name: VASODILATOR ACTIVITY

// worked examples, VASODILATOR ACTIVITY included
• CC(NCCCSc1ccccc1)C(O)c1ccc2c(c1)CCCS2 (stereo not shown) = +++
• CCCCSCCCNC(C)C(O)c1ccc2c(c1)CCCS2 (stereo not shown) = ++
• CC(NCCCN1CCCC1)C(O)c1ccc2c(c1)CCCS2 (stereo not shown) = +++
• CC(NCCOCc1ccccc1)C(O)c1ccc2c(c1)CCCS2 (stereo not shown) = +++
• CC(NC12CC3CC(CC(C3)C1)C2)C(O)c1ccc2c(c1)CCCS2 (stereo not shown) = +++

From here, focus on the item given below.
Challenge: Give VASODILATOR ACTIVITY (femoral artery) of the following molecule: COCCOCCCNC(C)C(O)c1ccc2c(c1)CCCS2 (stereo not shown)
Response given: ++
